Origin of values: paper PMC10232890

target: HLA-A*0301 (Homo sapiens, UniProt P04439); format: binding; settings: NeoScreen: peptide 1 µM, HLA I 2-10 nM, 24 h incubation, urea 0, 2, 4 and 6 M, ELISA with w6/32; relative to reference peptide […] (100%)
# cutoff 3% applies to Stability (%); >= gives satisfied, < gives not satisfied

orderedResidues: RLFRKSNLK
tgt: HLA-A*0301 (Homo sapiens, UniProt P04439)
assignedCategory: satisfied
--
orderedResidues: KCYGVSPTK
tgt: HLA-A*0301 (Homo sapiens, UniProt P04439)
assignedCategory: satisfied
--
orderedResidues: NQFNSAIGK
tgt: HLA-A*0301 (Homo sapiens, UniProt P04439)
assignedCategory: not satisfied
--
orderedResidues: ASANLAATK
tgt: HLA-A*0301 (Homo sapiens, UniProt P04439)
assignedCategory: satisfied
--
orderedResidues: VLKGVKLHY
tgt: HLA-A*0301 (Homo sapiens, UniProt P04439)
assignedCategory: not satisfied

* * *

molecular target: HLA-A*0201 (Homo sapiens, UniProt P04439, D140Y/D185E/D98H/E176V/E277Q/G131W/G231S/I119V/I121R/I166T/I218V/L300P/L318F/N151K/N90K/P208A/P217A/Q86G/Q94H/R138H/R169H/T345S); format: binding; details: NeoScreen: peptide 1 µM, HLA I 2-10 nM, 24 h incubation, urea 0, 2, 4 and 6 M, ELISA with w6/32; relative to reference peptide […] (100%)
# note: exactly 20% is not below, so it is condition not met; use condition met for Stability (%) strictly under it

orderedResidues: FLHVTYVPA
assignedCategory: condition not met

orderedResidues: NLNESLIDL
assignedCategory: condition met

orderedResidues: SIIAYTMSL
assignedCategory: condition not met

orderedResidues: GMSRIGMEV
assignedCategory: condition met

orderedResidues: LLFNKVTLA
assignedCategory: condition not met

orderedResidues: VTWFHAIHV
assignedCategory: condition not met

orderedResidues: KQIYKTPPI
assignedCategory: condition met

orderedResidues: HLMSFPQSA
assignedCategory: condition not met

orderedResidues: VLNDILSRL
assignedCategory: condition not met

orderedResidues: GLMWLSYFI
assignedCategory: condition met

orderedResidues: FQFCNDPFL
assignedCategory: condition not met
